System: Staphylococcus aureus
Assay: Compound was tested for its antibacterial activity against Staphylococcus aureus NCIB 8625 strain.
Type: functional
measurement type: log10 of MIC (log10 of the value in µg/mL)
Scale: decimal log of MIC, MIC in µg/mL.

State its log10 of MIC for this compound: C[C@@H](NC(=O)[C@@H](N)Cc1ccccc1)P(=O)(O)O
0.60

Given the compound CCCSC[C@H](N)C(=O)N[C@H](C)P(=O)(O)O , write its reported log10 of MIC.
0.90

Answer with the recorded log10 of MIC of C[C@H](N)C(=O)N[C@@H](C)P(=O)(O)O only.
1.51

Check the records and state log10 of MIC for CCC[C@H](N)C(=O)N[C@H](C)P(=O)(O)O
0.90

Identify the reported log10 of MIC for the following entry. C[C@@H](NC(=O)[C@@H](N)CF)P(=O)(O)O
1.20

Provide measured log10 of MIC value, entry: C[C@@H](NC(=O)[C@@H](N)CC[S+](C)[O-])P(=O)(O)O (some centres undefined)
0.90

Quickly give me recorded log10 of MIC for C[C@@H](NC(=O)[C@@H](N)CCS(C)(=O)=O)P(=O)(O)O
1.51

Report measured log10 of MIC; entry is CSCC[C@H](N)C(=O)N[C@H](C)P(=O)(O)O
0.00

Query log10 of MIC for C[C@@H](NC(=O)[C@@H](N)Cc1cccs1)P(=O)(O)O
1.51

Quick one: give measured log10 of MIC for C[C@@H](NC(=O)[C@@H](N)CCCN=C(N)N)P(=O)(O)O
1.20

Name the recorded log10 of MIC of the item C[C@@H](NC(=O)[C@@H](N)CCC/N=C(\N)N[N+](=O)[O-])P(=O)(O)O in your answer.
1.51

Consider the compound C[C@@H](NC(=O)[C@@H](N)CCCCN=C(N)N)P(=O)(O)O and give its recorded log10 of MIC.
2.11

Dear colleague, please send me the reported log10 of MIC for CSC[C@H](N)C(=O)N[C@H](C)P(=O)(O)O when you can.
1.20
